A collection of binders and their measured MFI
# measurement-target: T1, human LTBR on cells (human, UniProt P36941 31-435)
# T1 construct: also called recombinant human LTBR CHO cells; CHO-K1 cells overexpressing human LTBR
# experiment-description: FACS CHO-huLTBR, 0.24 µg/ml

binder: P1AE1873 (CBE11) (antibody, human IgG1, kappa, L234A L235A, V domains shown) VH: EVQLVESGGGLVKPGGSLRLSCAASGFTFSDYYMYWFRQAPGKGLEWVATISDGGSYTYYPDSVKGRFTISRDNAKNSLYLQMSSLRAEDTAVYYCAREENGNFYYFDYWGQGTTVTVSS VL: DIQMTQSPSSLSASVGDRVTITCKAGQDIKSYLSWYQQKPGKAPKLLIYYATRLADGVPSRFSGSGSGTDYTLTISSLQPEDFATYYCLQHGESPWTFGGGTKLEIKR
MFI (MFI): 11800
//
binder: P1AE9459 (antibody, human IgG1, kappa, L234A L235A, V domains shown, human IgG1 PG LALA; from transgenic rabbit immunization) VH: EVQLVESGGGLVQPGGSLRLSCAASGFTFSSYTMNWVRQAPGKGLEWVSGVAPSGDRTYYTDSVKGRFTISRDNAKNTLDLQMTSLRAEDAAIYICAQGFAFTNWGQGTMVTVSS VL: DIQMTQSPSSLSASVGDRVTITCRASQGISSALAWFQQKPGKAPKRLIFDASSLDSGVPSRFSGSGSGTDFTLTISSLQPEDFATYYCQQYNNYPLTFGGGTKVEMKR
MFI (MFI): 43600
//
binder: P1AF0079 (antibody, human IgG1, kappa, L234A L235A, V domains shown, human IgG1 PG LALA; from transgenic rabbit immunization; also called LTBR (0079)) VH: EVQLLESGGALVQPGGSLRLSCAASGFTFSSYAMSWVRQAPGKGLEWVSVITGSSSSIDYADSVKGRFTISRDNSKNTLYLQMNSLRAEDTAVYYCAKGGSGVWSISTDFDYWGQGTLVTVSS VL: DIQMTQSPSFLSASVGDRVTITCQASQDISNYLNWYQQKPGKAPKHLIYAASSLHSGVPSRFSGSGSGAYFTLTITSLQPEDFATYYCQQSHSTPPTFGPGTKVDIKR
MFI (MFI): 22800
//
binder: P1AE9457 (antibody, human IgG1, kappa, L234A L235A, V domains shown, human IgG1 PG LALA; from transgenic rabbit immunization; also called LTBR (9457)) VH: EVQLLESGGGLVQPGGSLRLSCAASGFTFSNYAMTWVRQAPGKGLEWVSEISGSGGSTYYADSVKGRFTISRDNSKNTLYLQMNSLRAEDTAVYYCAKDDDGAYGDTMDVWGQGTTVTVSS VL: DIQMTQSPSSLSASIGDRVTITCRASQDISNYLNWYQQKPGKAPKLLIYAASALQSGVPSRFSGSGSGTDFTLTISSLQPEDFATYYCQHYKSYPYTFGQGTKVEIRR
MFI (MFI): 27900
//
binder: P1AF0080 (antibody, human IgG1, kappa, L234A L235A, V domains shown, human IgG1 PG LALA; from transgenic rabbit immunization; also called LTBR (0080)) VH: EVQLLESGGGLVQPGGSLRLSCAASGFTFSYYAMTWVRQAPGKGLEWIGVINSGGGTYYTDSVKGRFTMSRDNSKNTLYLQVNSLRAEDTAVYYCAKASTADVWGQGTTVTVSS VL: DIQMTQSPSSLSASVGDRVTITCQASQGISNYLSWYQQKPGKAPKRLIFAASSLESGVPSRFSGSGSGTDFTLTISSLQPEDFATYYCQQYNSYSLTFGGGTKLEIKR
MFI (MFI): 33600

Origin of values: patent US20250034269A1
